target: T1, human SIRPα on cells (human, UniProt P78324 31-504); assay: flow cytometry;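 further: antibody binding to cells detected with a PE-labelled secondary antibody, given as mean fluorescence intensity relative to background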
T1 construct: Whole entry
Hi there, I'd appreciate the recorded FOB for every entry that follows.
Give bare numbers, in fold over background.

binder: SB-2-8 (antibody, V domains shown, IgG) VH: QVQLVESGGGVVQPGRSLRLSCAASGFTFLDYGMHWVRQAPGKGLEWVSAISAFAGSTYADSVKGRFTISRDNSKNTLYLQMNSLRAEDTAVYYCARDQTAAAAIWGMDVWGQGTTVTVSS VL: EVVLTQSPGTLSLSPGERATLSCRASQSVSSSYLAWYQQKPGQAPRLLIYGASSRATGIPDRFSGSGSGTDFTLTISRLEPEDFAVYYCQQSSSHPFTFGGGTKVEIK
measurement unit: fold over background
val: 1

[in] Requested read-out: FOB. Entry: SB-40 (antibody, V domains shown, IgG; also called SB-40 (p)) VH: QVQLVQSGAEVKKPGASVKVSCKASGYTFTSYYMSWVRQAPGQGLEWMGIINPSGGSTSYAQKFQGRVTMTRDTSTSTVYMELSSLRSEDTAVYYCARDTGEYSYSPHGMDVWGQGTTVTVSS VL: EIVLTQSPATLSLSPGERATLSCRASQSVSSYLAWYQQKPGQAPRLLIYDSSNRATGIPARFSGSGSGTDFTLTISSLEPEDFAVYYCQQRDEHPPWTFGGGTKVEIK
[out] 1
